- Tested target: Substance-P receptor (Homo sapiens, UniProt P25103)
- Sequence (P25103 whole entry): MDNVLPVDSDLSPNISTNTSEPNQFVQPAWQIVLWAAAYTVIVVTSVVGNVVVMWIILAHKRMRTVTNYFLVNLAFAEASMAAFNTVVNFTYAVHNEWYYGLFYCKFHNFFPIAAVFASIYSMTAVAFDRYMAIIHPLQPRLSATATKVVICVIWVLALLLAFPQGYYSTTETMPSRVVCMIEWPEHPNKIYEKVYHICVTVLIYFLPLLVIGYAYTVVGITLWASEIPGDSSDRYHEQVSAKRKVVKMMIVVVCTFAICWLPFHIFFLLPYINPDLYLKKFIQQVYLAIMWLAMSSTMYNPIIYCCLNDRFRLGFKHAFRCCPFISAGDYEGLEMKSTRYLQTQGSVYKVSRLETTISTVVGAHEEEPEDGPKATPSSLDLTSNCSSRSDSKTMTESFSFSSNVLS
- Assay procedure: Displacement of [125I]-labeled substance P from the cloned Tachykinin receptor 1
Dear colleague, classification is by IC50, with ranges listed here: group A (below 0.8 nM), group B (0.8 nM to below 60 nM), group C (60 nM or more)

>>> category_label("O=C(NCc1cc(C(F)(F)F)cc(C(F)(F)F)c1)[C@]1(c2ccccc2)CC[C@@H](N2CCC(c3ccc(F)cc3)CC2)CC1")
"group C"
>>> category_label("O=C(NC[C@]1(c2ccccc2)CC[C@H](N2CCC(c3ccc(F)cc3)CC2)CC1)c1cc(C(F)(F)F)cc(C(F)(F)F)c1")
"group B"
>>> category_label("CC(OC[C@]1(c2ccccc2)CC[C@@H](N2CCC(c3ccc(F)cc3)CC2)CC1)c1cc(C(F)(F)F)cc(C(F)(F)F)c1 (mixture of isomers)")
"group B"
>>> category_label("Fc1ccc(C2CCN([C@H]3CC[C@](CNCc4cc(C(F)(F)F)cc(C(F)(F)F)c4)(c4ccccc4)CC3)CC2)cc1")
"group B"
>>> category_label("O=C(NCc1cc(C(F)(F)F)cc(C(F)(F)F)c1)C1(c2ccccc2)CCNCC1")
"group C"
>>> category_label("O=C(NC(CO)c1cc(C(F)(F)F)cc(C(F)(F)F)c1)[C@]1(c2ccccc2)CC[C@@H](N2CCC(c3ccc(F)cc3)CC2)CC1 (mixture of isomers)")
"group A"
>>> category_label("O=C(NC[C@]1(c2ccccc2)CC[C@@H](N2CCC(c3ccc(F)cc3)CC2)CC1)c1cc(C(F)(F)F)cc(C(F)(F)F)c1")
"group C"
>>> category_label("O=C(Cc1cc(C(F)(F)F)cc(C(F)(F)F)c1)N[C@]1(c2ccccc2)CC[C@@H](N2CCC(c3ccc(F)cc3)CC2)CC1")
"group C"
>>> category_label("OCC(OC[C@]1(c2ccccc2)CC[C@@H](N2CCC(c3ccc(F)cc3)CC2)CC1)c1cc(C(F)(F)F)cc(C(F)(F)F)c1 (mixture of isomers)")
"group A"
>>> category_label("O=C(OCc1cc(C(F)(F)F)cc(C(F)(F)F)c1)[C@]1(c2ccccc2)CC[C@H](N2CCC(c3ccc(F)cc3)CC2)CC1")
"group B"
>>> category_label("Fc1ccc(C2CCN([C@H]3CC[C@@](CNCc4cc(C(F)(F)F)cc(C(F)(F)F)c4)(c4ccccc4)CC3)CC2)cc1")
"group C"
>>> category_label("O=C(N[C@]1(c2ccccc2)CC[C@@H](N2CCC(c3ccc(F)cc3)CC2)CC1)C(CO)c1cc(C(F)(F)F)cc(C(F)(F)F)c1 (mixture of isomers)")
"group A"
>>> category_label("CC(C)(C(=O)N[C@]1(c2ccccc2)CC[C@@H](N2CCC(c3ccc(F)cc3)CC2)CC1)c1cc(C(F)(F)F)cc(C(F)(F)F)c1")
"group A"
>>> category_label("CC(NC(=O)[C@]1(c2ccccc2)CC[C@@H](N2CCC(c3ccc(F)cc3)CC2)CC1)c1cc(C(F)(F)F)cc(C(F)(F)F)c1 (stereo in doubt; (+)-29a)")
"group A"
>>> category_label("O=C(Cc1cc(C(F)(F)F)cc(C(F)(F)F)c1)N[C@]1(c2ccccc2)CC[C@H](N2CCC(c3ccc(F)cc3)CC2)CC1")
"group A"
>>> category_label("Fc1ccc(C2CCN([C@H]3CC[C@](COCc4cc(C(F)(F)F)cc(C(F)(F)F)c4)(c4ccccc4)CC3)CC2)cc1")
"group B"
>>> category_label("CC(C)(NC(=O)[C@]1(c2ccccc2)CC[C@@H](N2CCC(c3ccc(F)cc3)CC2)CC1)c1cc(C(F)(F)F)cc(C(F)(F)F)c1")
"group A"
>>> category_label("O=C(OC[C@]1(c2ccccc2)CC[C@H](N2CCC(c3ccc(F)cc3)CC2)CC1)c1cc(C(F)(F)F)cc(C(F)(F)F)c1")
"group C"
